- System name: Polyunsaturated fatty acid lipoxygenase ALOX15 (Homo sapiens)
- Experiment: qHTS Assay for Inhibitors of 15-hLO (15-human lipoxygenase); note: nearly all actives have a fitted effect of over 55% in size; note: potency is the fitted concentration of half-maximal effect
- Assay conditions: purified 15hLO-1, xylenol orange hydroperoxide absorbance; series mostly up to 57.1 µM
The whole screen tested about 74,000 compounds, of which about 1,100 (1.5%) were called active. Another 5% or so got no clear call; they are omitted. The list comes from a sample in which actives are over-represented; it also holds close analogues and randomly drawn compounds.
# reported Potency; entries follow

Reference set, count: 5
- Compound: "CC/C=C/C/C=C/C/C=C/CCCCCCCC(=O)OCC"
  Potency: "2.51 µM (active)"
- Compound: "CCC(C(=O)NC1CCCC1)N(C(=O)c1snc(C(N)=O)c1N)c1ccc2c(c1)OCCO2 (stereo unspecified)"
  Potency: "25.1 µM (active)"
- Compound: "CC(=O)N1CCN(c2ccc(NCc3ccc(C(C)C)cc3)cc2)CC1"
  Potency: "12.6 µM (active)"
- Compound: "Cn1c(COc2ccc(Cl)cc2)nc2ccccc2c1=O"
  Potency: "25.1 µM (active)"
- Compound: "O=C(NCc1ccccn1)c1ccc2nc(-c3ccco3)c(-c3ccco3)nc2c1"
  Potency: "3.16 µM (active)"

[in] So what's the measured Potency for this one? `CCN(CC)c1ccc2oc(=O)c(C)nc2c1`
[out] 25.1 µM (active)

[in] Which measured Potency value corresponds to `CCC1=C/C(=C\c2ccc3c(c2)OCO3)C(=O)S1` ?
[out] 25.1 µM (active)

[in] // query Potency value for entry O=C(Nc1cc(N2CCOCC2)ncn1)NC1(C(F)(F)F)Oc2ccc(Cl)cc2O1 (stereo unspecified)
[out] 5.01 µM (active)

[in] Can you look up the measured Potency of C=C(C)C1CC=C(CO)CC1 (stereo unspecified) for me?
[out] 12.6 µM (active)

[in] Returns the measured Potency for the input compound. Input: `CCOC(=O)c1sc(=S)n2c1[nH]c(=O)c1ccc(C(=O)OC)cc12`
[out] 10 µM (active)

[in] Form field: reported Potency of `C=CCn1c(SCC(=O)Nc2nc3ccccc3s2)nnc1-c1ccccc1O`
[out] 25.1 µM (active)

====

- System name: Polyunsaturated fatty acid lipoxygenase ALOX15 (Homo sapiens) (UniProt P16050)
- Sequence (P16050 whole entry, looked up): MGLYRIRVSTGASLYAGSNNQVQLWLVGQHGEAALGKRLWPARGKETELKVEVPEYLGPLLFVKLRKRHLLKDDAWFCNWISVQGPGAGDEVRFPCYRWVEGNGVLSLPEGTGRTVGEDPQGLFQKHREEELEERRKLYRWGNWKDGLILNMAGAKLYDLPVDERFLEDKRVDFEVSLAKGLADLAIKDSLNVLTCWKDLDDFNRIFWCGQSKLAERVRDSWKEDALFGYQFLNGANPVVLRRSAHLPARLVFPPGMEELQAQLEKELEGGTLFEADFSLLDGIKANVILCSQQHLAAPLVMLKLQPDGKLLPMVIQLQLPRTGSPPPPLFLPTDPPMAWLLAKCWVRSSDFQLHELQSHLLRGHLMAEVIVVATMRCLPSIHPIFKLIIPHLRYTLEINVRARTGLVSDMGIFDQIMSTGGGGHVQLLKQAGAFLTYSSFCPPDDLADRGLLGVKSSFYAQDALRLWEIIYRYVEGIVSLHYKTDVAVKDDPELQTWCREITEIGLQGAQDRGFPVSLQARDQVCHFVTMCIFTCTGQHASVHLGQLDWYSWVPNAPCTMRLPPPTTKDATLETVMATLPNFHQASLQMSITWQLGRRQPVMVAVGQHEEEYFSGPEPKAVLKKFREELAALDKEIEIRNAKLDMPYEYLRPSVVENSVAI
- Experiment: qHTS Assay for Inhibitors of 15-hLO (15-human lipoxygenase); note: nearly all actives have a fitted effect of over 55% in size; for activity change, negative = inhibition: % is set by controls: 0 for no effect and ±100 for the full control effect
- Assay conditions: purified 15hLO-1, xylenol orange hydroperoxide absorbance; series mostly up to 57.1 µM
About 1,100 (1.5%) of roughly 74,000 compounds were called active. About 5% were inconclusive and are not listed. The sample as a whole holds a higher share of actives than the screen did.
Attribute measured: activity change, negative = inhibition

Solved entries:
- Compound: "CCCCOCCCNC(=O)c1ccccc1OCC"
  System name: "Polyunsaturated fatty acid lipoxygenase ALOX15 (Homo sapiens) (UniProt P16050)"
  activity change, negative = inhibition: "2.13% [at 11.4 µM] (inactive)"
- Compound: "CC(=O)OCC(=O)[C@@]1(O)CCC2C3CCC4=CC(=O)CC[C@]4(C)C3C(=O)C[C@]21C (some centres not stated)"
  System name: "Polyunsaturated fatty acid lipoxygenase ALOX15 (Homo sapiens) (UniProt P16050)"
  activity change, negative = inhibition: "inactive"
- Compound: "C=C1C(=O)C23C(O)C1CCC2[C@]12COC3(O)C(O)C1C(C)(C)CC[C@H]2O (some centres not stated)"
  System name: "Polyunsaturated fatty acid lipoxygenase ALOX15 (Homo sapiens) (UniProt P16050)"
  activity change, negative = inhibition: "inactive"
- Compound: "CC(C)[C@H]1CC[C@@H](C)C[C@H]1O"
  System name: "Polyunsaturated fatty acid lipoxygenase ALOX15 (Homo sapiens) (UniProt P16050)"
  activity change, negative = inhibition: "inactive"
- Compound: "COCCCNC(=O)c1c(F)c(F)c(F)c(F)c1F"
  System name: "Polyunsaturated fatty acid lipoxygenase ALOX15 (Homo sapiens) (UniProt P16050)"
  activity change, negative = inhibition: "inactive"
- Compound: "CCCN(C/C=C\\I)[C@@H]1CCc2cccc(O)c2C1"
  System name: "Polyunsaturated fatty acid lipoxygenase ALOX15 (Homo sapiens) (UniProt P16050)"
  activity change, negative = inhibition: "inactive"

[in] Consider the compound CC1(C)OC2CC3C4CCC5=CC(=O)CCC5(C)C4(F)C(O)CC3(C)[C@]2(C(=O)CCl)O1 (some centres not stated) and give its measured activity change, negative = inhibition.
[out] inactive

[in] Please look up its activity change, negative = inhibition: `CCC(=O)Nc1sc(C(=O)N2CCCCC2)c(C)c1C#N`
[out] inactive

[in] What value of activity change, negative = inhibition has been reported for the following compound? CC(CCC(=O)O)C1CCC2C3C(O)C[C@@H]4CC(O)CC[C@@]4(C)C3CC[C@@]12C (some centres not stated)
[out] inactive

[in] I have this compound here, `COC(=O)[C@@H]1CC[C@H](C)[C@@H](c2ccc(C)cc2)N1C(=O)c1ccc(/C=N\OC[C@@H](O)COCc2ccco2)cc1` , and I need its recorded activity change, negative = inhibition.
[out] -2.65% [at 11.4 µM] (inactive)

[in] Data request, read-out activity change, negative = inhibition, for `NC1(C(=O)OCc2ccccc2)CCCC1`
[out] -11.8% [at 11.4 µM] (inactive)

[in] Which activity change, negative = inhibition is reported for this compound? CC1OC(OCC2OC(Oc3c(-c4ccc(O)c(O)c4)oc4cc(O)cc(O)c4c3=O)C(O)C(O)C2O)[C@@H](O)C(O)C1O (some centres not stated)
[out] inactive
